Assay: small-molecule microarray binders of probe aEGFR, primary screen, biochemical, biotinylated probe, 635/667 nm fluorescence (AID 1097);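 note: probe is a biotinylated anti-EGFR antibody binding compounds printed on slides; score combines fluorescence near 667 nm and signal to noise of each spot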
Settings: higher = more signal
Response key: T means composite z-score >= -0.2; F means composite z-score < -0.2.

INSERT INTO results (compound, answer_label) VALUES
  ('COCCOC(=O)N1C(=O)[C@@]2(c3cc(C#CC4=CCCCC4)ccc31)[C@H](c1ccc(O)cc1)N1[C@H](c3ccccc3)[C@H](c3ccccc3)OC(=O)[C@H]1[C@@H]2C(=O)N1CCN(c2ncccn2)CC1', 'F'),
  ('[N-]=[N+]=NCc1ccccc1C[C@@]1(C(=O)NCc2ccccc2)N=C(c2ccc(OCCCO)cc2)O[C@@H]1c1ccccc1N=[N+]=[N-]', 'T'),
  ('COc1ccc([Si](C)(C)[C@@H]2[C@@H](CC(=O)N(CCO)Cc3ccccc3)O[C@]3(C(=O)N(Cc4cccc(N5C(=O)c6cccc7cccc5c67)c4)c4ccccc43)[C@H]2C)cc1', 'T'),
  ('O=C(NCc1ccccc1)[C@@H]1c2ccccc2C(=O)N(Cc2ccccc2C(F)(F)F)[C@H]1c1ccc(CO)cc1', 'F'),
  ('C=CCNC(=O)[C@@H]1[C@H]2C(=O)O[C@H](c3ccccc3)[C@H](c3ccccc3)N2[C@H](c2ccc(O)cc2)[C@@]12C(=O)N(C(=O)OCCOC)c1ccc(C#CC3(O)CCCCCC3)cc12', 'F'),
  ('COCCOC(=O)N1C(=O)[C@@]2(c3cc(C#CCCO)ccc31)[C@H](C(=O)Nc1nc3ccccc3s1)[C@H]1C(=O)O[C@H](c3ccccc3)[C@H](c3ccccc3)N1[C@@H]2c1ccccc1OCCO', 'T'),
  ('O=C1O[C@@H](c2ccccc2)[C@@H](c2ccccc2)N2[C@@H](c3ccc(O)cc3)[C@]3(C(=O)Nc4ccc(C#CC5=CCCCC5)cc43)[C@@H](C(=O)NC[C@H](O)c3ccccc3)[C@H]12', 'T'),
  ('CC(C)(C)N1CC=CC23O[C@@H]4C=CCCOC(=O)C4[C@H]2C(=O)N(CCO)[C@@H]3C1=O (stereo partly specified)', 'T'),
  ('COCCOC(=O)N1C(=O)[C@@]2(c3cc(C#Cc4ccc(OC)cc4)ccc31)[C@H](C(=O)Nc1nc3ccccc3s1)[C@H]1C(=O)O[C@H](c3ccccc3)[C@H](c3ccccc3)N1[C@@H]2c1ccc(O)cc1', 'T'),
  ('C=CCC(OC(C)=O)[C@@H]1[C@@H](N(Cc2cccc3ccccc23)C(=O)Cc2ccc(F)cc2)c2cc(OCCCO)ccc2N1C(=O)c1ccc2ccccc2n1 (stereo partly specified)', 'T');

Field: next compound
Task: Hello, I need to know if COCCOC(=O)N1C(=O)[C@@]2(c3ccccc31)[C@H](C(=O)N1CCN(c3ncccn3)CC1)[C@H]1C(=O)O[C@H](c3ccccc3)[C@H](c3ccccc3)N1[C@@H]2c1ccc(O)cc1 has measured composite z-score not below -0.2. Thanks!
Result: T

---

System: Inhibin beta A chain (activin A)
Assay: INHBA (activin A) binders on microarrays, primary screen, biochemical, small-molecule microarray, 635 nm fluorescence scan (AID 1107);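 note: mouse activin A protein probed at 4.33 µg/mL on printed slides; score merges bound-protein fluorescence near 667 nm with spot signal-to-noise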
Conditions: small-molecule microarray binding, higher = more signal
// class assignment uses composite z-score with these ranges: low = under 0.09, mid = from 0.09 up to 0.9, high = 0.9 and over

INSERT INTO assay_data (molecule, answer_label) VALUES
  ('COCCOC(=O)N1C(=O)[C@@]2(c3cc(C#Cc4ccc(OC)cc4)ccc31)[C@H](C(=O)Nc1nc3ccccc3s1)[C@H]1C(=O)O[C@H](c3ccccc3)[C@H](c3ccccc3)N1[C@@H]2c1ccc(OCCO)cc1', 'low'),
  ('COCCOC(=O)N1C(=O)[C@@]2(c3cc(C#CC4=CCCCC4)ccc31)[C@H](c1ccccc1OCCO)N1[C@H](c3ccccc3)[C@H](c3ccccc3)OC(=O)[C@H]1[C@@H]2C(=O)N1CCCCCCC1', 'mid'),
  ('CC(CO)N1C(=O)[C@@H]2[C@H]3C(=O)OCC=C[C@H]3OC23C=CCN(Cc2ccccc2)C(=O)[C@@H]13 (some centres not stated)', 'low'),
  ('C=CCOC(=O)[C@H]1[C@@H]2C(=O)O[C@@H](c3ccccc3)[C@@H](c3ccccc3)N2[C@@H](c2ccc(OCCOC(=O)[C@H]3C[C@H]4C(=O)N[C@@H](CC(C)C)C(=O)N4[C@H]3c3cccc(OCCO)c3)cc2)[C@]12C(=O)Nc1ccc(I)cc12', 'mid'),
  ('CC(C)C(CO)N1C(=O)[C@@H]2C3C(=O)OCCC/C=C\[C@H]3OC23C=CCN(C(C)(C)C)C(=O)[C@@H]13 (some centres not stated)', 'high');

Task: Each molecule maps to one class by composite z-score. Which class for Cc1cc(C)c(C(O)C2C=CC3C(=O)N(c4ccccc4)C(=O)C3N2Nc2ccc(C(C)C)cc2)c(C)c1 (configuration not stated) ?
Result: mid

Task: Into which bin does this molecule go? [N-]=[N+]=NCc1ccccc1C[C@@]1(C(=O)NCc2ccccc2)N=C(c2ccc(OCCCO)cc2)O[C@@H]1c1ccccc1N=[N+]=[N-]
Result: mid

Task: Band assignment needed for [N-]=[N+]=NCc1ccccc1C[C@@]1(C(=O)N2CCCCC2)N=C(c2ccc(OCCCO)cc2)O[C@@H]1c1ccccc1 please.
Result: high

Task: Categorize the following entry: COC(=O)C(CC#Cc1ccc2c(c1)[C@]1(C(=O)N2)[C@H](C(=O)N2CCN(c3ncccn3)CC2)[C@H]2C(=O)O[C@H](c3ccccc3)[C@H](c3ccccc3)N2[C@@H]1c1ccc(OCCO)cc1)C(=O)OC
Result: low

Task: Kindly state the category for this molecule: COCCOC(=O)N1C(=O)[C@@]2(c3ccccc31)[C@H](C(=O)N1CCN(c3ncccn3)CC1)[C@H]1C(=O)O[C@H](c3ccccc3)[C@H](c3ccccc3)N1[C@@H]2c1ccc(O)cc1
Result: low
